# System: A375
# Experiment Notes: SRB cell culture cytotoxicity assay, A375
# Format: cell-based, human
# Setup Conditions: Tables 11C, 11D; read-out: IC50 ± SEM (μm), A375
Property Label: pIC50
pIC50 here is simply -log10 of the concentration when that concentration is written in mol/L.

Data request: Fill blank: measured pIC50 of the molecule COc1cc(Cc2nc(-c3ccccc3)c[nH]2)cc(OC)c1OC [102a] is ____.
Data returned: 4.99

###

# Tested on: MDA-MB-435
# Experiment Notes: SRB growth inhibition, MDA-MB-435 (sensitive parent melanoma line)
# Format: cell-based, human
# Setup Conditions: Tables 11C, 11D; read-out: IC50 ± SEM (μm), MDA-MB-435
Property Label: IC50 (µM)
Your answer is read as µM, so omit the unit and give the number.

Data request: Fill blank: measured IC50 of the compound COc1cc(-c2c[nH]c(C(=O)c3ccccc3)n2)cc(OC)c1OC [70x] is ____.
Data returned: 4.61

###

# Experiment Notes: in vitro
# Setup Conditions: human, liver microsomes, pH 7.4
Property Label: half-life at 0.5 μM
Please answer in the form of a number followed by its unit of measurement.

- COc1cc(C(=O)c2c[nH]c(-c3ccc(Cl)cc3)n2)cc(OC)c1OC [12fa]: 44 min

Data request: Fill blank: measured half-life at 0.5 μM of the compound COc1cc(C(=O)c2csc(-c3ccccc3)n2)cc(OC)c1OC [drawing 53] is ____.
Data returned: 17 min

###

# Experiment Notes: Aqueous solubility (Multiscreen Solubility Filter Plate, LC-MS/MS)
# Assay type: physicochemical
# Setup Conditions: phosphate buffered saline, aqueous buffer, kinetic from dmso stock; PBS pH 7.4
Property Label: solubility at […]
Please answer in the form of a number followed by its unit of measurement.

Data request: Fill blank: measured solubility at […] of the molecule COc1cc(C(=O)c2c[nH]c(-c3ccc(Cl)cc3)n2)cc(OC)c1OC [12fa] is ____.
Data returned: 0.012 mg/mL

###

# Tested on: MDA-MB-435/LCC6MDR1
# Experiment Notes: SRB growth inhibition, multidrug-resistant MDA-MB-435/LCC6MDR1
# Assay type: cell-based
# Setup Conditions: Tables 11C, 11D; read-out: IC50 ± SEM (μm), MDA-MB-435/LCC6MDR1
Property Label: IC50 (µM)
Your answer is read as µM, so omit the unit and give the number.

Data request: Fill blank: measured IC50 of the compound COc1cc(-c2c[nH]c(C(=O)c3ccccc3)n2)cc(OC)c1OC [70x] is ____.
Data returned: 5.77

###

# Tested on: DU145/TXR
# Experiment Notes: Growth inhibition, DU145/TXR
# Format: cell-based
# Setup Conditions: RABI, Table 10A; read-out: DU145/TXR (nM), inhibitory effects
Property Label: IC50 (nM)
Your answer is read as nM, so omit the unit and give the number.

Data request: Fill blank: measured IC50 of the molecule COc1cc(C(=O)c2nc(-c3ccc(Cl)cc3)c[nH]2)cc(OC)c1OC [70c] is ____.
Data returned: 121

###

# Experiment Notes: in vivo
# Setup Conditions: nude, mouse, 20 mg/kg
Property Label: Kp
Form rule: numeric answer, no unit written next to it.

Data request: Fill blank: measured Kp of the compound COc1cc(C(=O)c2csc(Nc3ccc4[nH]ccc4c3)n2)cc(OC)c1OC is ____.
Data returned: 3.2
